Assay Remarks: Half life of the compound at pH 5.5 at 600 uM by HPLC analysis
Assay type: physicochemical
Recorded Endpoint: half-life at 600 µM (h)
API: value field is a number in h; no unit string.

Data request: Please list half-life at 600 µM recorded for the compound COc1cccc2c1C(=O)c1c(O)c3c(c(O)c1C2=O)C[C@@](O)(/C(CO)=N/NC(=O)CCCCCN1C(=O)CC(SCCCSCC(P(=O)(O)O)P(=O)(O)O)C1=O)C[C@@H]3O[C@H]1C[C@H](N)[C@H](O)[C@H](C)O1.Cl.N.N.N.N (stereo partly specified)
Data returned: 2.5

----------
Assay Remarks: Half life of the compound by HPLC analysis at pH 5 in presence of cathepsin B
Assay type: physicochemical
Recorded Endpoint: half-life (min)
API: value field is a number in min; no unit string.

Data request: Please list half-life recorded for the compound COc1cccc2c1C(=O)c1c(O)c3c(c(O)c1C2=O)C[C@@](O)(C(=O)CO)C[C@@H]3O[C@H]1C[C@H](NC(=O)OCc2ccc(NC(=O)[C@H](C)NC(=O)[C@@H](NC(=O)CCCCCN3C(=O)CC(SCCCSCC(P(=O)(O)O)P(=O)(O)O)C3=O)C(C)C)cc2)[C@H](O)[C@H](C)O1.N.N.N.N (stereo partly specified)
Data returned: 45
